Measured MIC, listed per entry for reference.
# System: Aspergillus flavus
# procedure-details: Antimicrobial activity against Aspergillus flavus after 72 to 96 hrs by twofold serial dilution method
# Type: functional

molecule: CC(C)C1C(=O)CC(c2ccccc2)N(C(=O)CN2CCN(C)CC2)C1c1ccccc1 (stereo not given)
MIC: 100 mg/L

molecule: COc1ccc(C2CC(=O)C(C)C(c3ccc(OC)cc3)N2C(=O)CN2CCN(C)CC2)cc1 (stereo not given)
MIC: 50 mg/L

molecule: CC1C(=O)C(C)C(c2ccc(Cl)cc2)N(C(=O)CN2CCN(C)CC2)C1c1ccc(Cl)cc1 (stereo not given)
MIC: 25 mg/L

molecule: C[C@@H]1[C@H](O)[C@@H](C)/C=C/C=C/C=C/C=C/C=C/C=C/C=C/[C@H](O[C@@H]2O[C@H](C)[C@@H](O)[C@H](N)[C@@H]2O)C[C@@H]2O[C@](O)(C[C@@H](O)C[C@@H](O)[C@H](O)CC[C@@H](O)C[C@@H](O)CC(=O)O[C@H]1C)C[C@H](O)[C@H]2C(=O)O
MIC: 50 mg/L

molecule: Cc1ccc(C2C(C)C(=O)C(C)C(c3ccc(C)cc3)N2C(=O)CN2CCN(C)CC2)cc1 (stereo not given)
MIC: 12.5 mg/L

molecule: CC1C(=O)CC(c2ccc(Cl)cc2)N(C(=O)CN2CCN(C)CC2)C1c1ccc(Cl)cc1 (stereo not given)
MIC: 50 mg/L

molecule: COc1ccc(C2C(C)C(=O)C(C)C(c3ccc(OC)cc3)N2C(=O)CN2CCN(C)CC2)cc1 (stereo not given)
MIC: 12.5 mg/L

molecule: CC1C(=O)CC(c2ccccc2)N(C(=O)CN2CCN(C)CC2)C1c1ccccc1 (stereo not given)
MIC: 100 mg/L

molecule: CCC1C(=O)CC(c2ccccc2)N(C(=O)CN2CCN(C)CC2)C1c1ccccc1 (stereo not given)
MIC: > 200 mg/L

molecule: CC1C(=O)C(C)C(c2ccccc2)N(C(=O)CN2CCN(C)CC2)C1c1ccccc1 (stereo not given)
MIC: 50 mg/L

* * *

# Tested on: Staphylococcus aureus
# procedure-details: Antimicrobial activity against Staphylococcus aureus after 24 hrs by twofold serial dilution method
# Assay type: functional

molecule: CCC1C(=O)CC(c2ccccc2)N(C(=O)CN2CCN(C)CC2)C1c1ccccc1 (stereo not given)
units-text: µg/mL
MIC: 100

molecule: COc1ccc(C2CC(=O)C(C)C(c3ccc(OC)cc3)N2C(=O)CN2CCN(C)CC2)cc1 (stereo not given)
units-text: µg/mL
MIC: 100

molecule: COc1ccc(C2C(C)C(=O)C(C)C(c3ccc(OC)cc3)N2C(=O)CN2CCN(C)CC2)cc1 (stereo not given)
units-text: µg/mL
MIC: 12.5

molecule: Cc1ccc(C2C(C)C(=O)C(C)C(c3ccc(C)cc3)N2C(=O)CN2CCN(C)CC2)cc1 (stereo not given)
units-text: µg/mL
MIC: 50

molecule: CC1C(=O)C(C)C(c2ccccc2)N(C(=O)CN2CCN(C)CC2)C1c1ccccc1 (stereo not given)
units-text: µg/mL
MIC: 50

* * *

# Tested on: Mus musculus
# procedure-details: Analgesic activity in albino mouse assessed as inhibition of acetic acid-induced writhing response at 30 mg/kg, po administered 1 hr prior to acetic acid challenge relative to control
# Assay type: functional

compound: COc1ccc(C2C(C)C(=O)C(C)C(c3ccc(OC)cc3)N2C(=O)CN2CCN(C)CC2)cc1 (stereo not given)
measured-on: Mus musculus
inhibition in vivo at 30 mg/kg, %: 46.2
//
compound: CC1C(=O)CC(c2ccc(Cl)cc2)N(C(=O)CN2CCN(C)CC2)C1c1ccc(Cl)cc1 (stereo not given)
measured-on: Mus musculus
inhibition in vivo at 30 mg/kg, %: 49.2
//
compound: CCC1C(=O)CC(c2ccccc2)N(C(=O)CN2CCN(C)CC2)C1c1ccccc1 (stereo not given)
measured-on: Mus musculus
inhibition in vivo at 30 mg/kg, %: 8
//
compound: COc1ccc(C2CC(=O)C(C)C(c3ccc(OC)cc3)N2C(=O)CN2CCN(C)CC2)cc1 (stereo not given)
measured-on: Mus musculus
inhibition in vivo at 30 mg/kg, %: 48.2
//
compound: CC(=O)Oc1ccccc1C(=O)O
measured-on: Mus musculus
inhibition in vivo at 30 mg/kg, %: 44.8
//
compound: CC1C(=O)C(C)C(c2ccc(Cl)cc2)N(C(=O)CN2CCN(C)CC2)C1c1ccc(Cl)cc1 (stereo not given)
measured-on: Mus musculus
inhibition in vivo at 30 mg/kg, %: 22.5
//
compound: Cc1ccc(C2C(C)C(=O)C(C)C(c3ccc(C)cc3)N2C(=O)CN2CCN(C)CC2)cc1 (stereo not given)
measured-on: Mus musculus
inhibition in vivo at 30 mg/kg, %: 42.6
//
compound: CC1C(=O)C(C)C(c2ccccc2)N(C(=O)CN2CCN(C)CC2)C1c1ccccc1 (stereo not given)
measured-on: Mus musculus
inhibition in vivo at 30 mg/kg, %: 17.4
//
compound: CC(C)C1C(=O)CC(c2ccccc2)N(C(=O)CN2CCN(C)CC2)C1c1ccccc1 (stereo not given)
measured-on: Mus musculus
inhibition in vivo at 30 mg/kg, %: 5.6
//
compound: CC1C(=O)CC(c2ccccc2)N(C(=O)CN2CCN(C)CC2)C1c1ccccc1 (stereo not given)
measured-on: Mus musculus
inhibition in vivo at 30 mg/kg, %: 6.3

* * *

# Test system: Klebsiella pneumoniae
# procedure-details: Antimicrobial activity against Klebsiella pneumoniae after 24 hrs by twofold serial dilution method
# Assay type: functional
Flag rule - MIC less than 20 mg/L flags Satisfied; the remaining entries get Not satisfied.

compound: CCC1C(=O)CC(c2ccccc2)N(C(=O)CN2CCN(C)CC2)C1c1ccccc1 (stereo not given)
measured-on: Klebsiella pneumoniae
category: Not satisfied
--
compound: COc1ccc(C2C(C)C(=O)C(C)C(c3ccc(OC)cc3)N2C(=O)CN2CCN(C)CC2)cc1 (stereo not given)
measured-on: Klebsiella pneumoniae
category: Not satisfied
--
compound: COc1ccc(C2CC(=O)C(C)C(c3ccc(OC)cc3)N2C(=O)CN2CCN(C)CC2)cc1 (stereo not given)
measured-on: Klebsiella pneumoniae
category: Not satisfied
--
compound: O=C(O)c1cn(C2CC2)c2cc(N3CCNCC3)c(F)cc2c1=O
measured-on: Klebsiella pneumoniae
category: Not satisfied
--
compound: CC1C(=O)C(C)C(c2ccccc2)N(C(=O)CN2CCN(C)CC2)C1c1ccccc1 (stereo not given)
measured-on: Klebsiella pneumoniae
category: Satisfied
--
compound: CC(C)C1C(=O)CC(c2ccccc2)N(C(=O)CN2CCN(C)CC2)C1c1ccccc1 (stereo not given)
measured-on: Klebsiella pneumoniae
category: Not satisfied
--
compound: CC1C(=O)CC(c2ccc(Cl)cc2)N(C(=O)CN2CCN(C)CC2)C1c1ccc(Cl)cc1 (stereo not given)
measured-on: Klebsiella pneumoniae
category: Not satisfied
--
compound: Cc1ccc(C2C(C)C(=O)C(C)C(c3ccc(C)cc3)N2C(=O)CN2CCN(C)CC2)cc1 (stereo not given)
measured-on: Klebsiella pneumoniae
category: Satisfied
--
compound: CC1C(=O)CC(c2ccccc2)N(C(=O)CN2CCN(C)CC2)C1c1ccccc1 (stereo not given)
measured-on: Klebsiella pneumoniae
category: Not satisfied
--
compound: CC1C(=O)C(C)C(c2ccc(Cl)cc2)N(C(=O)CN2CCN(C)CC2)C1c1ccc(Cl)cc1 (stereo not given)
measured-on: Klebsiella pneumoniae
category: Satisfied

* * *

Measured Activity, listed per entry for reference.
# System: Rattus norvegicus
# procedure-details: Antipyretic activity against brewer's yeast-induced hyperthermia in Wistar rat assessed as change in rectal temperature at 30 mg/kg, po after 30 mins
# Assay type: functional

molecule: COc1ccc(C2CC(=O)C(C)C(c3ccc(OC)cc3)N2C(=O)CN2CCN(C)CC2)cc1 (centres undefined)
measured-on: Rattus norvegicus
Activity / °C: 37.9

molecule: CC1C(=O)CC(c2ccccc2)N(C(=O)CN2CCN(C)CC2)C1c1ccccc1 (centres undefined)
measured-on: Rattus norvegicus
Activity / °C: 38.25

molecule: CC1C(=O)C(C)C(c2ccc(Cl)cc2)N(C(=O)CN2CCN(C)CC2)C1c1ccc(Cl)cc1 (centres undefined)
measured-on: Rattus norvegicus
Activity / °C: 37.95

molecule: Cc1ccc(C2C(C)C(=O)C(C)C(c3ccc(C)cc3)N2C(=O)CN2CCN(C)CC2)cc1 (centres undefined)
measured-on: Rattus norvegicus
Activity / °C: 38.11

molecule: COc1ccc(C2C(C)C(=O)C(C)C(c3ccc(OC)cc3)N2C(=O)CN2CCN(C)CC2)cc1 (centres undefined)
measured-on: Rattus norvegicus
Activity / °C: 38.1

molecule: CC1C(=O)C(C)C(c2ccccc2)N(C(=O)CN2CCN(C)CC2)C1c1ccccc1 (centres undefined)
measured-on: Rattus norvegicus
Activity / °C: 38.11

molecule: CC1C(=O)CC(c2ccc(Cl)cc2)N(C(=O)CN2CCN(C)CC2)C1c1ccc(Cl)cc1 (centres undefined)
measured-on: Rattus norvegicus
Activity / °C: 37.05

molecule: CCC1C(=O)CC(c2ccccc2)N(C(=O)CN2CCN(C)CC2)C1c1ccccc1 (centres undefined)
measured-on: Rattus norvegicus
Activity / °C: 38.27

molecule: CC(C)C1C(=O)CC(c2ccccc2)N(C(=O)CN2CCN(C)CC2)C1c1ccccc1 (centres undefined)
measured-on: Rattus norvegicus
Activity / °C: 38.15
